Test system: histamine ulcer
Experiment: Effect on the Histamine ulcer
Format: in vivo, SD strain male rats
Details: 100 mg/kg oral; histamine 200 mg/kg intraperitoneally; 4 hours after histamine; rat; read-out: Inhibition rate to the development of the histamine ulcer

{"molecule": "CC(=O)CCC=C(C)CCCC(C)CCCC(C)CCCC(C)C (stereo not shown)", "inhibition in vivo at 100 mg/kg [%]": 35.2}
{"molecule": "CC(C)=CCCC(C)=CCCC(C)=CCCC(=O)OCC=C(C)CCC=C(C)C [control compound A, reference compound]", "inhibition in vivo at 100 mg/kg [%]": 15.4}
{"molecule": "CC(=O)CCCC(C)CCCC(C)CCCC(C)CCCC(C)C (stereo not shown)", "inhibition in vivo at 100 mg/kg [%]": 22.4}
{"molecule": "CC(=O)C(CC=C(C)CCC=C(C)CCC=C(C)CCC=C(C)C)C(C)=O", "inhibition in vivo at 100 mg/kg [%]": 40.8}

====

A collection of compounds and their measured inhibition in vivo at 100 mg/kg
Tested on: histamine ulcer
Test: Effect on the Histamine ulcer
Type: in vivo, SD strain male rats
Settings: 100 mg/kg oral; histamine 200 mg/kg intraperitoneally; 4 hours after histamine; rat; read-out: Inhibition rate to the development of the histamine ulcer

{"chemSmiles": "CC(=O)CCC=C(C)CCC=C(C)CCC=C(C)CCC=C(C)C", "inhibition in vivo at 100 mg/kg": "53.8%"}
{"chemSmiles": "CCCC(=O)CCC=C(C)CCC=C(C)CCC=C(C)CCC=C(C)C", "inhibition in vivo at 100 mg/kg": "49%"}
{"chemSmiles": "CC(C)=CCCC(C)=CCCC(C)=CCCC(C)=CCCC(=O)C(C)C", "inhibition in vivo at 100 mg/kg": "44.7%"}
